The entries below come with measured IC50 values attached.
# SYSTEM_UNDER_TEST: mTOR (Homo sapiens)
# Construct: FLAG; made in house
# ASSAY_TEXT: mTOR Kinase Assay (Echo)
# Assay type: biochemical
Only the number, expressed in nM, is required.

Use these answered entries as a reference point.
# MOLECULE, UNIT_OF_MEASUREMENT, RESULT
rows = [
    ("Cc1cnc(NC(=O)Nc2ccc(-c3nc(N4CCOC[C@@H]4C)cc(C4(S(C)(=O)=O)CC4)n3)cc2)cn1 [Example 36az]", "nM", 1.49),
    ("CCNC(=O)Nc1ccc(-c2nc(N3CCOC[C@@H]3C)cc(C3(S(=O)(=O)c4ccc(Cl)cc4)CC3)n2)cc1 [Example 27f]", "nM", 0.959),
    ("C[C@H]1COCCN1c1cc(C2(S(=O)(=O)CCCO)CC2)nc(-c2ccc(NC(=S)NCCO)cc2)n1 [Example 37i]", "nM", 3.06),
]

Summary for this molecule, CCNC(=O)Nc1ccc(-c2nc(N3CCOCC3)cc(C3(S(=O)(=O)c4nc(C)cs4)CC3)n2)cc1 [Example 42d] : IC50 is 0.425

* * *

# SYSTEM_UNDER_TEST: mTOR (Homo sapiens)
# Construct: FLAG; made in house
# ASSAY_TEXT: In Vitro mTOR Kinase Assay (Echo), Test (a)(ii)
# Type: biochemical
# EXPERIMENTAL_PARAMETERS: table of enzyme assay Test (a)(ii); read-out: Test (a)(ii) IC50
IC50 under 30 nM gets met, anything at or over 30 nM gets not met.

Consider the worked cases shown below.
# COMPOUND, CLASS_NAME
records = [
    ("CCNC(=O)Nc1ccc(-c2nc(N3CCOC[C@@H]3C)cc(C3(S(=O)(=O)c4ccc(C#N)cc4Cl)CC3)n2)cc1 [Example 85f]", "met"),
    ("CCNC(=O)Nc1ccc(-c2nc(N3CCOCC3)cc(C3(S(=O)(=O)c4ccncc4)CC3)n2)cc1 [Example 36au]", "met"),
    ("CC[C@H]1COCCN1c1cc(C2(S(=O)(=O)c3ccccc3)CC2)nc(-c2ccc(NC(=O)NC3CC3)cc2)n1 [Example 74a]", "met"),
    ("C[C@H]1COCCN1c1cc(C2(S(=O)(=O)c3ccncc3)CC2)nc(-c2ccc(NC(=O)NC3(CO)CC3)cc2)n1 [Example 36cx]", "not met"),
    ("CNC(=O)Nc1ccc(-c2nc(N3CCOC[C@@H]3C)cc(C3(S(=O)(=O)c4ccccn4)CC3)n2)cc1 [Example 28e]", "met"),
]

Req: # strict comparison: is reported IC50 < 30 nM? input = CCNC(=O)Nc1ccc(-c2nc(N3CCOC[C@@H]3C)cc(C3(S(=O)(=O)c4ccc(NCC)c(Cl)c4)CC3)n2)cc1 [Example 95k]
Resp: met

* * *

The entries below come with measured pIC50 values attached.
# SYSTEM_UNDER_TEST: mTOR (Homo sapiens, UniProt P42345)
# Construct: FLAG; made in house
# Sequence (P42345 1362-2549): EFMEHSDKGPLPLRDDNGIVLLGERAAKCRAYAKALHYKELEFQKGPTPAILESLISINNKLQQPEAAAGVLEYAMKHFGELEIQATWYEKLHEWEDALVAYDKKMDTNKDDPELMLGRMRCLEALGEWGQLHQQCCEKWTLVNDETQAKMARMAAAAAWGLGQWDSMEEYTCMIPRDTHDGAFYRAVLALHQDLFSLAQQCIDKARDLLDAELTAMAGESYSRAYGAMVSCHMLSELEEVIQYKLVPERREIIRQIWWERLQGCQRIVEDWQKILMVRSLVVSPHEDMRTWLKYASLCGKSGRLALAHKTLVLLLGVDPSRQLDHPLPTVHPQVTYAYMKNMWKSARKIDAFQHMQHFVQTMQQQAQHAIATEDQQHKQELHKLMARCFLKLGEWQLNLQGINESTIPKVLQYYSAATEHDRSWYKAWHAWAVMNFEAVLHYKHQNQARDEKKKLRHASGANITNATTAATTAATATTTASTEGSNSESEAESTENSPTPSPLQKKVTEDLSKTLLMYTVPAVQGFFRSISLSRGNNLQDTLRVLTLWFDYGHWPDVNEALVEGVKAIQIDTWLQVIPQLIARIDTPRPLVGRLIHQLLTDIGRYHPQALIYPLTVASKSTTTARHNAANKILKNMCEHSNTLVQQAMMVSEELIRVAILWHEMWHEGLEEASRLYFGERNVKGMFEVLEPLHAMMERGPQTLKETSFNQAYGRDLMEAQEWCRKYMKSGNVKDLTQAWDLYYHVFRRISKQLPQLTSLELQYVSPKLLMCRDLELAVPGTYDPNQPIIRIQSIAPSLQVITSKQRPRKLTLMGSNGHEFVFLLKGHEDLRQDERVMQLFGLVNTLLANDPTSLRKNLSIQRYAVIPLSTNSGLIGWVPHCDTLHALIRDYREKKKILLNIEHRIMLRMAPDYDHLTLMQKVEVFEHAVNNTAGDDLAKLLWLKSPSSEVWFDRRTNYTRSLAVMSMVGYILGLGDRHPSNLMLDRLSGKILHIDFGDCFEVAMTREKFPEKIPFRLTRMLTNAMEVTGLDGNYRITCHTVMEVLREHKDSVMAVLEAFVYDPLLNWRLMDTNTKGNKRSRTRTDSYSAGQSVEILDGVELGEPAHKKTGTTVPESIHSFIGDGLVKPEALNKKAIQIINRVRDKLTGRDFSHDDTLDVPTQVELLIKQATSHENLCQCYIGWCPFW
# ASSAY_TEXT: In Vitro mTOR Kinase Assay (Echo), Test (a)(ii)
# Assay type: biochemical
# EXPERIMENTAL_PARAMETERS: table of enzyme assay Test (a)(ii); read-out: Test (a)(ii) IC50
# Source text: (a)(ii) In Vitro mTOR Kinase Assay (Echo) The assay used AlphaScreen technology (Gray et al., Analytical Biochemistry, 2003, 313: 234-245) to determine the ability of test compounds to inhibit phosphorylation by recombinant mTOR. A C-terminal truncation of mTOR encompassing amino acid residues 1362 to 2549 of mTOR (EMBL Accession No. L34075) was stably expressed as a FLAG-tagged fusion in HEK293 cells as described by Vilella-Bach et al., Journal of Biochemistry, 1999, 274, 4266-4272. […]
Remember the convention: pIC50 equals -log10 of concentration in molar.

Use these answered entries as a reference point.
# COMPOUND, pIC50
rows = [
    ("C[C@H]1COCCN1c1cc(C2(S(=O)(=O)C3CCOCC3)CC2)nc(-c2ccc(NC(=O)Nc3cnn(C)c3)cc2)n1 [Example 94e]", 7.87),
    ("C[C@H]1COCCN1c1cc(C2(S(=O)(=O)c3ccc(F)cc3)CC2)nc(-c2ccc(NC(=S)NC3CC3)cc2)n1 [Example 37t]", 8.05),
    ("CC[C@H]1COCCN1c1cc(C2(S(C)(=O)=O)CC2)nc(-c2ccc(NC(=O)NC3CC3)cc2)n1 [Example 84a]", 8.04),
]

Okay, next one:
Summary for this compound, CNC(=O)Nc1ccc(-c2nc(N3CCOC[C@@H]3C)cc(C3(S(=O)(=O)C4CCCCC4)CC3)n2)cc1 [Example 26e] : pIC50 is 8.40
